Recorded values, source ChEMBL document CHEMBL2385069.

Listed here are compounds together with their documented MIC.
# Test system: Priestia megaterium
# assay: Antibacterial activity against Bacillus megaterium ATCC 9885 after 24 hrs by two fold serial dilution technique
# Assay type: functional
# experimental_context: ATCC 9885, 24 h
Respond numerically; units are mg/L and should not be typed.

1) O=C(O)c1cn(C2CC2)c2cc(N3CCNCC3)c(F)cc2c1=O : 6.25

Short answer for O=C(O)CNC(=O)c1ccc(NC(=S)Nc2ccc(NC(=S)Nc3ccc(C(=O)NCC(=O)O)cc3)cc2)cc1 : MIC was 12.5

In plain terms, O=C(O)CNC(=O)c1ccc(NC(=S)Nc2ccc(C(=O)NCC(=O)O)cc2)cc1 has a documented MIC of 12.5
